# system-name: Sentrin-specific protease 1 (Homo sapiens) (UniProt Q9P0U3)
# Sequence (Q9P0U3 419-644 limits assumed): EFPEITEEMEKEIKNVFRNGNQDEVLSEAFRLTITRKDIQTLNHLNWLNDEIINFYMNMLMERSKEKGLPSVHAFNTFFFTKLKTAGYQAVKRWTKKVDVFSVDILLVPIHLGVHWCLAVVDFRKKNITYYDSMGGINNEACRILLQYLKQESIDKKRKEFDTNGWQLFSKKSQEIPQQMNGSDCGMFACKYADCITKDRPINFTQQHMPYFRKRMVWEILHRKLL
# assay-comment: blockers of SENP1 SUMO protease activity – biochemical, FRET, uHTS, primary screen (AID 624204)
# protocol-conditions: recombinant SENP1 catalytic domain, CyPet-SUMO1-YPet FRET cleavage; at 10 µM
About 770 (0.21%) of roughly 360,000 compounds were called active.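 Rule for the calls: active = inhibition at least 30% at 10 µM, raw YFP signal under a set limit, fluorescence ratio 0.5 to 1.5; inactive = the rest.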 The sample holds actives, similar compounds and a random draw of the others, so the mix is not that of the screen.
Response enum: active, inactive

query: Recorded call for CC1=CC2=NC(=O)/C(=C/c3coc4ccccc4c3=O)C(=N)N2O1 ?
result: inactive

query: Recorded call for O=C(CN1CCOCC1)Nc1c(-c2ccccc2)c2cc(Br)ccc2[nH]c1=O ?
result: inactive

query: Recorded call for O=C(CNC(=O)c1ccc(Cl)cc1Cl)NCC(=O)Nc1ccccc1N1CCOCC1 ?
result: inactive

query: Recorded call for COc1ccc(-c2c(C#N)cnc(C)c2C)c(O)c1OC ?
result: inactive

query: Recorded call for O=C1/C(=C/c2coc3ccc(O)cc3c2=O)SC(=S)N1c1ccccc1 ?
result: active

query: Recorded call for CC(C)c1ccc(S(=O)(=O)N2CCC3(CC2)OCCO3)cc1 ?
result: inactive

query: Recorded call for CSc1ccc(CN2C(=O)NC3(CCCCCC3)C2=O)cc1 ?
result: inactive

query: Recorded call for Cc1ccc(Nc2nc(N)nc(CSc3nnc(C)s3)n2)cc1 ?
result: inactive

query: Recorded call for O=C(O)c1cc(S(=O)(=O)N2CCCCCC2)c(Cl)cc1Cl ?
result: inactive

query: Recorded call for CC(C)Cn1cnc2c1c(=O)n(CC(O)c1ccccc1)c(=O)n2CC(C)C (configuration not stated) ?
result: inactive

query: Recorded call for Cc1cccc(Nc2nnc(SCC(=O)c3c(N)n(C4CC4)c(=O)[nH]c3=O)s2)c1C ?
result: inactive

query: Recorded call for CC(=O)NC1(c2cccc(F)c2)CCN(CC(=O)NC(C)C)CC1 ?
result: inactive

query: Recorded call for Cc1cc(C)cc(C(=O)OCC(=O)NCCNC(=O)COC(=O)c2cc(C)cc(C)c2)c1 ?
result: inactive

query: Recorded call for CCOc1ccc(N(CC(=O)Nc2cccc(OC)c2)S(C)(=O)=O)cc1 ?
result: inactive

query: Recorded call for N/C(=N\OC(=O)N1c2ccccc2Sc2ccccc21)c1ccc(Br)cc1 ?
result: active

query: Recorded call for CNC(=S)N/N=C/c1ccc(N2CCOCC2)s1 ?
result: inactive

query: Recorded call for O=C(c1ccc(-n2cnnn2)cc1)N1CCN(C(c2ccccc2)c2ccccc2)CC1 ?
result: inactive

query: Recorded call for CC(C)=CCN1CCN(Cc2cc3ccccc3[nH]2)CC1CCO (configuration not stated) ?
result: inactive

query: Recorded call for Cc1nc2nc(C)c(CCC(=O)N3CCN(c4ccccc4)CC3)c(C)n2n1 ?
result: inactive

query: Recorded call for CCCNC(=O)c1cc(C2CCCCN2S(=O)(=O)c2ccc(C#N)cc2)on1 (configuration not stated) ?
result: inactive

query: Recorded call for Nn1c(SCc2ccccc2)nnc1C1CCCCC1 ?
result: inactive

query: Recorded call for COc1ccc(/C=C(\NC(=O)c2ccc(OCC(C)C)cc2)C(=O)OCc2ccco2)cc1 ?
result: inactive
